Source of measurements: the supplement of paper PMC11061612

System: HCC1806 (Breast Carcinoma)
Test: Bliss excess, mean over the matrix (fraction); higher = more synergy
Measured Bliss excess of individual entries

[
  {
    "COMPOUND": "CN(CCO)CC[C@H](CSc1ccccc1)Nc1ccc(S(=O)(=O)NC(=O)c2ccc(N3CCC([C@@H](O)c4ccccc4-c4ccc(Cl)cc4)CC3)cc2)cc1S(=O)(=O)C(F)(F)F [AZD4320] + C[C@@H]1COCCN1C2=NC(=NC(=C2)C3(CC3)[S@](=N)(=O)C)C4=C5C=CNC5=NC=C4 [AZD6738] (first compound max 1 µM, 7x7, partner max 10 µM)",
    "Bliss excess": 0.0208
  },
  {
    "COMPOUND": "COc1cccc(OCCCN)c1-c1cc(Nc2cnc(C#N)cn2)n[nH]1 [Prexasertib] + CN(C)CCCOc1ccc(-c2ccc3ncc4c(c3c2)n(C2CCOCC2)c(=O)n4C)cn1 [AZD0156] (first compound max 1 µM, 7x7, partner max 1 µM)",
    "Bliss excess": -0.0262
  },
  {
    "COMPOUND": "NC1(C(=O)N[C@@H](CCO)c2ccc(Cl)cc2)CCN(c2ncnc3[nH]ccc23)CC1 [Capivasertib] + CCN(CCO)CCCOc1ccc2c(Nc3cc(CC(=O)Nc4cccc(F)c4)[nH]n3)ncnc2c1 [AZD2811] (first compound max 10 µM, 7x7, partner max 1 µM)",
    "Bliss excess": 0.0012
  }
]

---

System: KP-1N (Pancreatic Carcinoma)
Assay: Bliss excess, mean over the matrix (fraction); higher = more synergy
Decision: Bliss excess >= -0.004 yields class 1, all other cases yield class 0.

[
  {
    "MOLECULE": "CN(CCO)CC[C@H](CSc1ccccc1)Nc1ccc(S(=O)(=O)NC(=O)c2ccc(N3CCC([C@@H](O)c4ccccc4-c4ccc(Cl)cc4)CC3)cc2)cc1S(=O)(=O)C(F)(F)F [AZD4320] + CCN(CCO)CCCOc1ccc2c(Nc3cc(CC(=O)Nc4cccc(F)c4)[nH]n3)ncnc2c1 [AZD2811] (first compound max 1 µM, 7x7, partner max 1 µM)",
    "CATEGORY_LABEL": "class 0"
  },
  {
    "MOLECULE": "C[C@@H]1COCCN1c1cc(C2([S@](C)(=N)=O)CC2)nc(-c2ccnc3[nH]ccc23)n1 [AZD6738] + O=C(c1cc(Cc2n[nH]c(=O)c3ccccc23)ccc1F)N1CCN(C(=O)C2CC2)CC1 [Olaparib] (first compound max 10 µM, 7x7, partner max 10 µM)",
    "CATEGORY_LABEL": "class 1"
  },
  {
    "MOLECULE": "Cc1c2c(nn1C)CSCc1cc(n(C)n1)CSc1cc(c3ccccc3c1)OCCCc1c(C(=O)O)n(C)c3c-2c(Cl)ccc13 [AZD5991] + CCN(CCO)CCCOc1ccc2c(Nc3cc(CC(=O)Nc4cccc(F)c4)[nH]n3)ncnc2c1 [AZD2811] (first compound max 1 µM, 7x7, partner max 1 µM)",
    "CATEGORY_LABEL": "class 0"
  },
  {
    "MOLECULE": "CN(C)CCCOc1ccc(-c2ccc3ncc4c(c3c2)n(C2CCOCC2)c(=O)n4C)cn1 [AZD0156] + O=C(c1cc(Cc2n[nH]c(=O)c3ccccc23)ccc1F)N1CCN(C(=O)C2CC2)CC1 [Olaparib] (first compound max 3 µM, partner max 3 µM)",
    "CATEGORY_LABEL": "class 0"
  },
  {
    "MOLECULE": "CC1(C)CCC(CN2CCN(c3ccc(C(=O)NS(=O)(=O)c4ccc(NCC5CCOCC5)c([N+](=O)[O-])c4)c(Oc4cnc5[nH]ccc5c4)c3)CC2)=C(c2ccc(Cl)cc2)C1 [Venetoclax] + C1CN(CCC1(C(=O)N[C@@H](CCO)C2=CC=C(C=C2)Cl)N)C3=NC=NC4=C3C=CN4 [Capivasertib] (first compound max 1 µM, 7x7, partner max 3 µM)",
    "CATEGORY_LABEL": "class 0"
  },
  {
    "MOLECULE": "COc1cccc(OCCCN)c1-c1cc(Nc2cnc(C#N)cn2)n[nH]1 [Prexasertib] + Cc1cc2ncnn2cc1Nc1ncc2c(n1)n(C1CCOCC1)c(=O)n2C [AZD7648] (first compound max 1 µM, 7x7, partner max 10 µM)",
    "CATEGORY_LABEL": "class 0"
  },
  {
    "MOLECULE": "Cn1cnc2c(F)c(Nc3ccc(Br)cc3Cl)c(C(=O)NOCCO)cc21 [Selumetinib] + C=CCn1c(=O)c2cnc(Nc3ccc(N4CCN(C)CC4)cc3)nc2n1-c1cccc(C(C)(C)O)n1 [AZD1775] (first compound max 10 µM, partner max 1 µM)",
    "CATEGORY_LABEL": "class 0"
  },
  {
    "MOLECULE": "Cc1c2c(nn1C)CSCc1cc(n(C)n1)CSc1cc(c3ccccc3c1)OCCCc1c(C(=O)O)n(C)c3c-2c(Cl)ccc13 [AZD5991] + C[C@@H](Nc1cc(F)cc(F)c1)c1cc(C(=O)N(C)C)cc2c(=O)cc(N3CCOCC3)oc12 [AZD8186] (first compound max 1 µM, 7x7, partner max 3 µM)",
    "CATEGORY_LABEL": "class 0"
  },
  {
    "MOLECULE": "NC1(C(=O)N[C@@H](CCO)c2ccc(Cl)cc2)CCN(c2ncnc3[nH]ccc23)CC1 [Capivasertib] + Cn1cnc2c(F)c(Nc3ccc(Br)cc3Cl)c(C(=O)NOCCO)cc21 [Selumetinib] (first compound max 10 µM, 7x7, partner max 10 µM)",
    "CATEGORY_LABEL": "class 1"
  },
  {
    "MOLECULE": "CC1(C)CCC(CN2CCN(c3ccc(C(=O)NS(=O)(=O)c4ccc(NCC5CCOCC5)c([N+](=O)[O-])c4)c(Oc4cnc5[nH]ccc5c4)c3)CC2)=C(c2ccc(Cl)cc2)C1 [Venetoclax] + COc1cc(Nc2ncc3c(n2)-c2ccc(Cl)cc2C(c2c(F)cccc2OC)=NC3)ccc1C(=O)O [Alisertib] (first compound max 1 µM, 7x7, partner max 10 µM)",
    "CATEGORY_LABEL": "class 1"
  },
  {
    "MOLECULE": "CN(CCO)CC[C@H](CSc1ccccc1)Nc1ccc(S(=O)(=O)NC(=O)c2ccc(N3CCC([C@@H](O)c4ccccc4-c4ccc(Cl)cc4)CC3)cc2)cc1S(=O)(=O)C(F)(F)F [AZD4320] + C1CN(CCC1(C(=O)N[C@@H](CCO)C2=CC=C(C=C2)Cl)N)C3=NC=NC4=C3C=CN4 [Capivasertib] (first compound max 1 µM, 7x7, partner max 3 µM)",
    "CATEGORY_LABEL": "class 0"
  },
  {
    "MOLECULE": "C=CCn1c(=O)c2cnc(Nc3ccc(N4CCN(C)CC4)cc3)nc2n1-c1cccc(C(C)(C)O)n1 [AZD1775] + C[C@@H]1COCCN1C2=NC(=NC(=C2)C3(CC3)[S@](=N)(=O)C)C4=C5C=CNC5=NC=C4 [AZD6738] (first compound max 1 µM, partner max 10 µM)",
    "CATEGORY_LABEL": "class 1"
  },
  {
    "MOLECULE": "C[C@@H](c1ccc2nccn2c1)n1nnc2ncc(-c3cnn(C)c3)nc21 [Savolitinib] + Cc1c2c(nn1C)CSCc1cc(n(C)n1)CSc1cc(c3ccccc3c1)OCCCc1c(C(=O)O)n(C)c3c-2c(Cl)ccc13 [AZD5991] (first compound max 1 µM, 7x7, partner max 1 µM)",
    "CATEGORY_LABEL": "class 0"
  }
]

---

Measured combination Emax of individual entries
System: TE-15 (Esophageal Squamous Cell Carcinoma)
Experiment: combination Emax (second highest fraction inhibited in the dose matrix, 72 h); higher = more inhibition; extreme values may be limits of the assay
EXPERIMENTAL_READOUT: combination Emax

[
  {
    "COMPOUND": "C=CCn1c(=O)c2cnc(Nc3ccc(N4CCN(C)CC4)cc3)nc2n1-c1cccc(C(C)(C)O)n1 [AZD1775] + O=C(c1cc(Cc2n[nH]c(=O)c3ccccc23)ccc1F)N1CCN(C(=O)C2CC2)CC1 [Olaparib] (first compound max 1 µM, partner max 10 µM)",
    "EXPERIMENTAL_READOUT": "combination Emax",
    "NUMBER": 0.382
  },
  {
    "COMPOUND": "C=CCn1c(=O)c2cnc(Nc3ccc(N4CCN(C)CC4)cc3)nc2n1-c1cccc(C(C)(C)O)n1 [AZD1775] + C[C@@H]1COCCN1C2=NC(=NC(=C2)C3(CC3)[S@](=N)(=O)C)C4=C5C=CNC5=NC=C4 [AZD6738] (first compound max 1 µM, partner max 10 µM)",
    "EXPERIMENTAL_READOUT": "combination Emax",
    "NUMBER": 0.761
  },
  {
    "COMPOUND": "C=CCn1c(=O)c2cnc(Nc3ccc(N4CCN(C)CC4)cc3)nc2n1-c1cccc(C(C)(C)O)n1 [AZD1775] + C1CN(CCC1(C(=O)N[C@@H](CCO)C2=CC=C(C=C2)Cl)N)C3=NC=NC4=C3C=CN4 [Capivasertib] (first compound max 3 µM, partner max 3 µM)",
    "EXPERIMENTAL_READOUT": "combination Emax",
    "NUMBER": 0.724
  },
  {
    "COMPOUND": "Cc1cc2ncnn2cc1Nc1ncc2c(n1)n(C1CCOCC1)c(=O)n2C [AZD7648] + O=C(c1cc(Cc2n[nH]c(=O)c3ccccc23)ccc1F)N1CCN(C(=O)C2CC2)CC1 [Olaparib] (first compound max 10 µM, 7x7, partner max 10 µM)",
    "EXPERIMENTAL_READOUT": "combination Emax",
    "NUMBER": 0.182
  },
  {
    "COMPOUND": "CN(C)CCCOc1ccc(-c2ccc3ncc4c(c3c2)n(C2CCOCC2)c(=O)n4C)cn1 [AZD0156] + CCN(CCO)CCCOc1ccc2c(Nc3cc(CC(=O)Nc4cccc(F)c4)[nH]n3)ncnc2c1 [AZD2811] (first compound max 1 µM, 7x7, partner max 1 µM)",
    "EXPERIMENTAL_READOUT": "combination Emax",
    "NUMBER": 0.0454
  },
  {
    "COMPOUND": "C[C@@H](Nc1cc(F)cc(F)c1)c1cc(C(=O)N(C)C)cc2c(=O)cc(N3CCOCC3)oc12 [AZD8186] + C1CN(CCC1(C(=O)N[C@@H](CCO)C2=CC=C(C=C2)Cl)N)C3=NC=NC4=C3C=CN4 [AZD5363] (first compound max 10 µM, 7x7, partner max 10 µM)",
    "EXPERIMENTAL_READOUT": "combination Emax",
    "NUMBER": 0.496
  },
  {
    "COMPOUND": "Cc1cc2ncnn2cc1Nc1ncc2c(n1)n(C1CCOCC1)c(=O)n2C [AZD7648] + CCN(CCO)CCCOc1ccc2c(Nc3cc(CC(=O)Nc4cccc(F)c4)[nH]n3)ncnc2c1 [AZD2811] (first compound max 10 µM, 7x7, partner max 1 µM)",
    "EXPERIMENTAL_READOUT": "combination Emax",
    "NUMBER": 0.283
  },
  {
    "COMPOUND": "CC(=O)c1c(C)c2cnc(Nc3ccc(N4CCNCC4)cn3)nc2n(C2CCCC2)c1=O [Palbociclib] + CC1(C)CCC(CN2CCN(c3ccc(C(=O)NS(=O)(=O)c4ccc(NCC5CCOCC5)c([N+](=O)[O-])c4)c(Oc4cnc5[nH]ccc5c4)c3)CC2)=C(c2ccc(Cl)cc2)C1 [Venetoclax] (first compound max 10 µM, 7x7, partner max 1 µM)",
    "EXPERIMENTAL_READOUT": "combination Emax",
    "NUMBER": 0.343
  },
  {
    "COMPOUND": "Cc1c2c(nn1C)CSCc1cc(n(C)n1)CSc1cc(c3ccccc3c1)OCCCc1c(C(=O)O)n(C)c3c-2c(Cl)ccc13 [AZD5991] + Cn1cnc2c(F)c(Nc3ccc(Br)cc3Cl)c(C(=O)NOCCO)cc21 [Selumetinib] (first compound max 1 µM, 7x7, partner max 3 µM)",
    "EXPERIMENTAL_READOUT": "combination Emax",
    "NUMBER": 0.317
  },
  {
    "COMPOUND": "Cc1c2c(nn1C)CSCc1cc(n(C)n1)CSc1cc(c3ccccc3c1)OCCCc1c(C(=O)O)n(C)c3c-2c(Cl)ccc13 [AZD5991] + Cc1cc2ncnn2cc1Nc1ncc2c(n1)n(C1CCOCC1)c(=O)n2C [AZD7648] (first compound max 1 µM, 7x7, partner max 10 µM)",
    "EXPERIMENTAL_READOUT": "combination Emax",
    "NUMBER": 0.235
  },
  {
    "COMPOUND": "C[C@@H](c1ccc2nccn2c1)n1nnc2ncc(-c3cnn(C)c3)nc21 [Savolitinib] + CC1(C)CCC(CN2CCN(c3ccc(C(=O)NS(=O)(=O)c4ccc(NCC5CCOCC5)c([N+](=O)[O-])c4)c(Oc4cnc5[nH]ccc5c4)c3)CC2)=C(c2ccc(Cl)cc2)C1 [Venetoclax] (first compound max 1 µM, 7x7, partner max 1 µM)",
    "EXPERIMENTAL_READOUT": "combination Emax",
    "NUMBER": 0.287
  },
  {
    "COMPOUND": "CN(CCO)CC[C@H](CSc1ccccc1)Nc1ccc(S(=O)(=O)NC(=O)c2ccc(N3CCC([C@@H](O)c4ccccc4-c4ccc(Cl)cc4)CC3)cc2)cc1S(=O)(=O)C(F)(F)F [AZD4320] + C[C@@H]1COCCN1C2=NC(=NC(=C2)C3(CC3)[S@](=N)(=O)C)C4=C5C=CNC5=NC=C4 [AZD6738] (first compound max 1 µM, 7x7, partner max 10 µM)",
    "EXPERIMENTAL_READOUT": "combination Emax",
    "NUMBER": 0.908
  },
  {
    "COMPOUND": "CC1(C)CCC(CN2CCN(c3ccc(C(=O)NS(=O)(=O)c4ccc(NCC5CCOCC5)c([N+](=O)[O-])c4)c(Oc4cnc5[nH]ccc5c4)c3)CC2)=C(c2ccc(Cl)cc2)C1 [Venetoclax] + COc1cc(Nc2ncc3c(n2)-c2ccc(Cl)cc2C(c2c(F)cccc2OC)=NC3)ccc1C(=O)O [Alisertib] (first compound max 1 µM, 7x7, partner max 10 µM)",
    "EXPERIMENTAL_READOUT": "combination Emax",
    "NUMBER": 0.686
  },
  {
    "COMPOUND": "Cc1cc2ncnn2cc1Nc1ncc2c(n1)n(C1CCOCC1)c(=O)n2C [AZD7648] + C[C@@H]1COCCN1C2=NC(=NC(=C2)C3(CC3)[S@](=N)(=O)C)C4=C5C=CNC5=NC=C4 [AZD6738] (first compound max 10 µM, 7x7, partner max 10 µM)",
    "EXPERIMENTAL_READOUT": "combination Emax",
    "NUMBER": 0.713
  }
]
